The measured values listed here are drawn from ChEMBL document CHEMBL4742385.

- target or system: CDK8/Cyclin C (Homo sapiens) (UniProt P49336+P24863)
- test protocol: Inhibition of human CDK8/Cyc C expressed in Sf21 cells at 1 uM measured after 1 hr by fluorescence plate reader relative to control
measure name: inhibition (%)

>  <compound>
Cn1cc(-c2ccncc2/C=C/C(=O)Nc2ccc(CN3CCOC(C)(C)C3)cc2)cn1

>  <measure name>
inhibition

>  <units of measure>
%

>  <readout value>
97

$$$$
>  <compound>
O=C(/C=C/c1cnccc1-c1ccc2ncn(CC3CC3)c2c1)Nc1ccc(CN2CCOCC2)cc1

>  <measure name>
inhibition

>  <units of measure>
%

>  <readout value>
95

$$$$
>  <compound>
Cn1cc(-c2ccc(NC(=O)/C=C/c3cnccc3-c3cnn(C4CC4)c3)cc2)cn1

>  <measure name>
inhibition

>  <units of measure>
%

>  <readout value>
92

$$$$
>  <compound>
COc1ncc(-c2ccncc2/C=C/C(=O)Nc2ccc(CN3CCOCC3)cc2)s1

>  <measure name>
inhibition

>  <units of measure>
%

>  <readout value>
99

$$$$
>  <compound>
Cn1cc(-c2ccncc2/C=C/C(=O)Nc2ccc3c(c2)CCN(CC(F)(F)F)C3)cn1

>  <measure name>
inhibition

>  <units of measure>
%

>  <readout value>
98

$$$$
>  <compound>
Cn1cc(-c2ccncc2/C=C/C(=O)Nc2ccc(CN3CC4CC3CO4)cc2)cn1 (centres undefined)

>  <measure name>
inhibition

>  <units of measure>
%

>  <readout value>
100

$$$$
>  <compound>
O=C(/C=C/c1cnccc1-c1cnn(C2CC2)c1)Nc1ccc2c(ccn2CC(F)(F)F)c1

>  <measure name>
inhibition

>  <units of measure>
%

>  <readout value>
99

$$$$
>  <compound>
Cn1cc(-c2ccncc2/C=C/C(=O)Nc2ccc3c(c2)CCN3)cn1

>  <measure name>
inhibition

>  <units of measure>
%

>  <readout value>
97

$$$$
>  <compound>
CC1COCCN1Cc1ccc(NC(=O)/C=C/c2cnccc2-c2cnn(C)c2)cc1 (centres undefined)

>  <measure name>
inhibition

>  <units of measure>
%

>  <readout value>
100

$$$$
